Data origin, for the record: patent US10947196B2

target: β2 adrenergic receptor (Homo sapiens (Human)); experiment: cAMP Gs dynamic HTRF assay, β2 expressing CHO cells; assay type: cell-based; conditions: B2-AR; CHO-K cells; read-out: Average EC50 [Receptor subtype: B2-AR; Cell type: CHO-K]
pEC50: −log10 of the molar value.

compound	test.system	pEC50
COc1ccc(CC(C)(C)NC[C@@H](O)c2cccc(C(F)(F)F)n2)cc1	β2 adrenergic receptor (Homo sapiens (Human))	6.00 to 7.00
CC(C)(C)NC[C@H](O)c1cccc(OC(F)(F)F)n1	β2 adrenergic receptor (Homo sapiens (Human))	> 8.00
CC(C)(C)NC[C@@H](O)c1cccc(C#N)n1	β2 adrenergic receptor (Homo sapiens (Human))	< 6.00
CC(C)(C)NC[C@H](O)c1cccc(-c2ccccc2)n1	β2 adrenergic receptor (Homo sapiens (Human))	> 8.00
O[C@H](CNC1Cc2ccccc2C1)c1cccc(C(F)(F)F)n1	β2 adrenergic receptor (Homo sapiens (Human))	< 6.00
CC(C)(C)NCC(O)c1cccnc1Cl (stereo not drawn)	β2 adrenergic receptor (Homo sapiens (Human))	7.00 to 8.00
CC(C)(C)NC[C@H](O)c1cccc(C(F)F)n1	β2 adrenergic receptor (Homo sapiens (Human))	7.00 to 8.00
CNc1cccc([C@@H](O)CNC(C)(C)C)n1	β2 adrenergic receptor (Homo sapiens (Human))	> 8.00
CC(C)(C)NC[C@H](O)c1cccc(-c2cccnc2)n1	β2 adrenergic receptor (Homo sapiens (Human))	> 8.00

---

experiment: Rat pharmacokinetic studies; assay type: in vivo, male SD rats; conditions: male, SD, in vivo, IV 1 mg/kg
value.type: half-life (min)

Cc1ncccc1[C@@H](O)CNC(C)(C)C 21.6

---

biological target: β1-adrenergic receptor (Homo sapiens (Human), UniProt P08588); assay: cAMP Gs dynamic HTRF assay, β1 expressing CHO cells; assay type: cell-based; details: B1-AR; CHO-K1 (HitHunter); read-out: Average pEC50 [Receptor subtype: B1-AR; Cell type: CHO-K1 (HitHunter)] (converted)
Sequence (P08588 whole entry, species assumed): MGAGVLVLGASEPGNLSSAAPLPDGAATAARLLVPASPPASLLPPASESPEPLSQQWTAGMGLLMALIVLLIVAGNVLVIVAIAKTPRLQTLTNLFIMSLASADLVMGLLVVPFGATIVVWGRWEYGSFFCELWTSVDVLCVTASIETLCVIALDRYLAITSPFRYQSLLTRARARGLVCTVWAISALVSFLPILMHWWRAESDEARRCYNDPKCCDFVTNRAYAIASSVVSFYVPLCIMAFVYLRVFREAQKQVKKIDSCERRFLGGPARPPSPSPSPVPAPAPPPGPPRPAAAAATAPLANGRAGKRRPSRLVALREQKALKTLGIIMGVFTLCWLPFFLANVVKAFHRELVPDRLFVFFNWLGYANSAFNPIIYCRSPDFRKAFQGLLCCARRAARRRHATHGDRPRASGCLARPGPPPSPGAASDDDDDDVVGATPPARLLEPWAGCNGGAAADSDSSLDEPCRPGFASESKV
Let's look at some compounds and their measured EC50.
value.type: EC50

CC(C)(C)NC[C@H](O)c1cccc(C(C)(C)CN)n1 > 1000 nM
CC(C)(C)NC[C@@H](O)c1cccc(C2CCOCC2)n1 > 1000 nM
CCNc1cccc([C@@H](O)CNC(C)(C)C)n1 10 to 100 nM
CC(C)(C)NC[C@H](O)c1cccc(C2=N[C@H](C(=O)O)CS2)n1 > 1000 nM

---

target: β2 adrenergic receptor (Homo sapiens (Human), UniProt P07550); assay: cAMP Gs dynamic HTRF assay, β2 expressing CHO cells; assay type: cell-based; conditions: B2-AR; CHO-K cells; read-out: Average EC50 [Receptor subtype: B2-AR; Cell type: CHO-K]
Sequence (P07550 whole entry, species assumed): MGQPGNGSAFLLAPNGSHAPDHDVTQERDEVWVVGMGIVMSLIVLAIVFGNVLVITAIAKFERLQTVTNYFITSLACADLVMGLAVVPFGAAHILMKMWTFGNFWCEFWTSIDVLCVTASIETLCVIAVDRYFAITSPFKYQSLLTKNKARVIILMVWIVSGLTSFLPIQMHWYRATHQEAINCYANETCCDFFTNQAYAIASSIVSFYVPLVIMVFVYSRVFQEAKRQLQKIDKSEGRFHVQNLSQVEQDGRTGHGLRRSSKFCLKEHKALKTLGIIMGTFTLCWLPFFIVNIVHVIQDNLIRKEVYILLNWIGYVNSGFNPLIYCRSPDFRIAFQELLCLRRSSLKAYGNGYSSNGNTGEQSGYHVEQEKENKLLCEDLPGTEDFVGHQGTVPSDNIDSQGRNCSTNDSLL
pEC50: −log10 of the molar value.
value.type: pEC50

CC(C)(C)NC[C@@H](O)c1cccc(-c2cccnc2)n1 6.00 to 7.00
CC(C)(C)NC[C@H](O)c1ccc2cccc(C(F)(F)F)c2n1 > 8.00
CC(C)(C)NC[C@H](O)c1cccc(-c2ccc(F)cc2)n1 > 8.00
CC(C)(C)NC[C@H](O)c1cccc(C2CCOCC2)n1 > 8.00
CC(C)(C)NC[C@H](O)c1cccc(N2CCCCC2)n1 > 8.00
CC(C)(C)NC[C@@H](O)c1nc(C(F)(F)F)cc2ccccc12 < 6.00
Cc1ccc([C@@H](O)CNC(C)(C)C)nc1 7.00 to 8.00
Cc1cc([C@@H](O)CNC(C)(C)C)nc(C(F)(F)F)c1 7.00 to 8.00
CC(C)(C)NC[C@H](O)c1cccc(C(N)=O)n1 < 6.00

---

assay: Rat CNS exposure measurement (plasma, CSF, brain); type: in vivo, male SD rats; conditions: male, SD, brain, IV 1 mg/kg, read-out: Concentration, Brain
value.type: concentration at 1 h (ng/g)

CC(C)(C)NC[C@H](O)c1cccc(C#N)n1 267

---

molecular target: UniProt P07550; assay: cAMP Gs dynamic HTRF assay, β2 expressing CHO cells; assay type: cell-based; conditions: B2-AR; CHO-K1 (HitHunter); read-out: Average pEC50 [Receptor subtype: B2-AR; Cell type: CHO-K1 (HitHunter)] (converted)

molecule	EC50
CC(C)(C)NC[C@H](O)c1ccc(C#N)cn1 [Compound 03-212]	100 to 1000 nM
CC(C)(C)NC[C@H](O)c1cccc(OC(F)(F)F)n1 [Compound 03-37]	< 10 nM
CC(C)(C)NC[C@H](O)c1cccc(NC2CCCC2)n1 [Compound 03-191]	< 10 nM
Cc1nc(C2CC2)ccc1[C@@H](O)CNC(C)(C)C [Compound 03-268]	< 10 nM
CC(C)(C)NC[C@H](O)c1cccc(Br)n1 [Compound 03-32]	10 to 100 nM
CN(C)c1ncccc1[C@@H](O)CNC(C)(C)C [Compound 03-56]	> 1000 nM
CC(C)(C)NC[C@H](O)c1cccnc1OC1CC1 [Compound 03-71]	10 to 100 nM
CNCc1cccc([C@@H](O)CNC(C)(C)C)n1 [Compound 03-252]	> 1000 nM
O[C@H](CNC1(C(F)(F)F)CC1)c1cccc(C(F)(F)F)n1 [Compound 03-235]	> 1000 nM
CN(C)c1cccc([C@H](O)CNC(C)(C)C)n1 [Compound 03-154]	> 1000 nM
C#Cc1ncccc1[C@@H](O)CNC(C)(C)C [Compound 03-75]	> 1000 nM
CC(C)(C)NC[C@H](O)c1cccnc1OC1CCC1 [Compound 03-72]	< 10 nM
Cn1cc(-c2cccc([C@H](O)CNC(C)(C)C)n2)cn1 [Compound 03-224]	100 to 1000 nM
Cc1ccc([C@@H](O)CNC(C)(C)C)c(C2=CCCC2)n1 [Compound 03-90]	> 1000 nM
O[C@@H](CNC1Cc2ccccc2C1)c1cccc(C(F)(F)F)n1 [Compound 03-21]	10 to 100 nM
Cc1cccc([C@H](O)CNC(C)(C)C)n1 [Compound 03-47]	> 1000 nM
CC(C)(C)NC[C@H](O)c1cccc(C2CCCC2)n1 [Compound 03-198]	10 to 100 nM
CC(C)(C)N(O)C[C@H](O)c1cccc(C(N)=O)n1 [Compound 03-245]	> 1000 nM
CC(C)(C)NC[C@H](O)c1cccc(NCC(F)(F)F)n1 [Compound 03-266]	< 10 nM
CC(C)(C)NC[C@@H](O)c1ccnc(C#N)c1 [Compound 03-111]	10 to 100 nM

---

molecular target: β2 adrenergic receptors in human astrocytoma cells (1321N1) (Homo sapiens (Human), UniProt P07550); test: cAMP HTRF assay in human astrocytoma cells (1321N1); assay type: cell-based
Sequence (P07550 whole entry): as the sequence (P07550 whole entry, species assumed) above
Let's look at some compounds and their measured EC50.
value.type: EC50

COc1ccc(C[C@@H](C)NC[C@H](O)c2cccnc2C2=CCCC2)cc1 > 1000 nM
COc1ccc(C[C@@H](C)NC[C@H](O)c2cccnc2C2CCCC2)cc1 100 to 1000 nM
COc1ccc(C[C@@H](C)NC[C@H](O)c2ccc(OC)nc2C)cc1 100 to 1000 nM

---

Experiment: Mouse CNS exposure measurement (plasma, CSF, brain)
Type: in vivo, male C57BL/6J mice
Conditions: male, C57BL/6J, CSF, PO 5 mg/kg, 100 min, read-out: Concentration, CSF
Description: These rats were typically about 6-8 weeks old, weighing 200 g to 300 g. Animals were fasted overnight and free access to food 4 hours after dosing. […] Samples were analyzed using LC-MS/MS. […] For brain sampling, the rats were fully exsanguinated by using a risen of carbon dioxide prior to brain collection. […] The actual concentration is the detected value multiplied by the dilution factor. […]

compound	concentration at 100 min
CC(C)(C)NC[C@H](O)c1cccc(C#N)n1 [Compound 03-5]	621 ng/mL

---

molecular target: β1-adrenergic receptor (Homo sapiens (Human), UniProt P08588); experiment: cAMP Gs dynamic HTRF assay, β1 expressing CHO cells; assay type: cell-based; conditions: B1-AR; CHO-K1 (HitHunter); read-out: Average pEC50 [Receptor subtype: B1-AR; Cell type: CHO-K1 (HitHunter)] (converted)
Let's look at some compounds and their measured EC50.

compound	EC50
CC(C)(C)NC[C@H](O)c1cccnc1C1CCC1 [Compound 03-68]	0.1 to 1 µM
Cc1ccccc1-c1cccc([C@@H](O)CNC(C)(C)C)n1 [Compound 03-149]	0.1 to 1 µM
CC(C)(C)NC[C@@H](O)c1ccnc(C(F)(F)F)c1 [Compound 03-211]	0.1 to 1 µM
CC(C)(C)NC[C@H](O)c1cccc(C2CCOCC2)n1 [Compound 03-121]	0.1 to 1 µM
CC(C)(C)NC[C@H](O)c1cccc(-c2ccc(F)cc2)n1 [Compound 03-145]	0.01 to 0.1 µM
O[C@@H](CNC1Cc2ccccc2C1)c1cccc(C(F)(F)F)n1 [Compound 03-21]	0.1 to 1 µM
CNc1cccc([C@@H](O)CNC(C)(C)C)n1 [Compound 03-141]	0.01 to 0.1 µM
CC(C)(C)NC[C@H](O)c1cccc(C(C)(C)C#N)n1 [Compound 03-207]	< 0.01 µM
CC(C)(C)NC[C@H](O)c1cccc(-n2ccnn2)n1 [Compound 03-102]	0.1 to 1 µM
Cn1ccc(-c2cccc([C@H](O)CNC(C)(C)C)n2)n1 [Compound 03-226]	> 1 µM
CC1(NC[C@H](O)c2cccc(C(F)(F)F)n2)CCC1 [Compound 03-11]	0.01 to 0.1 µM
COc1ccc(C[C@@H](C)NC[C@H](O)c2cc(Cl)cnc2C)cc1 [Compound 03-271]	0.1 to 1 µM
CC(C)(C)NC[C@H](O)c1cc(F)cnc1C1CCCC1 [Compound 03-80]	> 1 µM
CC(C)(C)NCC(O)c1cncc(Cl)n1 (centres unmarked) [Compound 03-219]	0.1 to 1 µM
CC(C)(C)NC[C@H](O)c1cccnc1-n1ccnn1 [Compound 03-241]	> 1 µM
CC(C)(C)NC[C@H](O)c1cccnc1OC(F)(F)F [Compound 03-70]	0.1 to 1 µM
C#Cc1cccc([C@H](O)CNC(C)(C)C)n1 [Compound 03-238]	0.1 to 1 µM
CC(C)(C)NC[C@@H](O)c1cccc(-c2ccc[nH]2)n1 [Compound 03-244]	0.1 to 1 µM
CC(C)(C)NC[C@H](O)c1cccc(OC(F)(F)F)n1 [Compound 03-37]	0.01 to 0.1 µM
Cc1ncc(Cl)cc1[C@@H](O)CNC(C)(C)C [Compound 03-267]	0.1 to 1 µM
CC(C)(C)NC[C@H](O)c1cccnc1C1CC1 [Compound 03-54]	0.1 to 1 µM
COc1ccc(CC(C)(C)NC[C@H](O)c2cccc(C(F)(F)F)n2)cc1 [Compound 03-182]	0.01 to 0.1 µM
CC(C)(C)NC[C@H](O)c1cccc(NCC(F)(F)F)n1 [Compound 03-266]	< 0.01 µM
CN(C)c1cccc([C@@H](O)CNC(C)(C)C)n1 [Compound 03-153]	0.01 to 0.1 µM
CC(C)Nc1cccc([C@@H](O)CNC(C)(C)C)n1 [Compound 03-192]	0.01 to 0.1 µM
CN(C)c1cccc([C@H](O)CNC(C)(C)C)n1 [Compound 03-154]	> 1 µM
Cc1ccc([C@H](O)CNC(C)(C)C)nc1 [Compound 03-128]	> 1 µM
CC(C)(C)NC[C@@H](O)c1cccc(Cl)n1 [Compound 03-230]	0.01 to 0.1 µM
Cc1cccc(-c2cccc([C@H](O)CNC(C)(C)C)n2)c1 [Compound 03-148]	0.1 to 1 µM
CC(C)(C)NC[C@H](O)c1cccnc1OC1CC1 [Compound 03-71]	0.1 to 1 µM
CNc1cccc([C@H](O)CNC(C)(C)C)n1 [Compound 03-142]	> 1 µM
CC(=O)Nc1cccc([C@H](O)CNC(C)(C)C)n1 [Compound 03-239]	0.1 to 1 µM
[2H]C([2H])([2H])C(NCC(O)c1cccnc1C)(C([2H])([2H])[2H])C([2H])([2H])[2H] (centres unmarked) [Compound 03-278]	0.1 to 1 µM
CC(C)(C)NC[C@H](O)c1cc(C(F)(F)F)cnc1C1CCCC1 [Compound 03-78]	< 0.01 µM
[2H]C([2H])([2H])C(NCC(O)c1cccc(C(F)(F)F)n1)(C([2H])([2H])[2H])C([2H])([2H])[2H] (centres unmarked) [Compound 03-49]	> 1 µM
Cc1ccc([C@H](O)CNC(C)(C)C)nc1C(F)(F)F [Compound 03-168]	0.01 to 0.1 µM
C#Cc1ncccc1[C@@H](O)CNC(C)(C)C [Compound 03-75]	> 1 µM
COc1ccc(C[C@@H](C)NC[C@H](O)c2cccc(C3CCCC3)n2)cc1 [Compound 03-265]	0.01 to 0.1 µM
